Target: T1, Bzz1-1, P38822
T1 sequence (P38822 478-572, looked up): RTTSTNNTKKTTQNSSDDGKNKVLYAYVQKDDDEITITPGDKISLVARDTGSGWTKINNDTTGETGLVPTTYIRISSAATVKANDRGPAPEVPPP
Assay: SPOT array
Details: median of control spots 4446
Quick reference for SPOT intensity among some binders
Lab note: jot the number down without any unit.

Examples from the recorded data:
KKAPPPVVKPKPRNF
10
DGNEEKPLLPTRPNK
0
NLDRSKISLPDFDDE
3

Quick one: SPOT intensity of WRPRIVPILPYITRL ? 0

Now the binder SSAAPPPPPRRATPE 0

Quick one: IFLRISINFPLNYPN 6

Moving on to the next binder: PPPPPPPPPPPLPQS 2
